- testedTarget: UniProtKB Q2TB90
- Sequence (Q2TB90 whole entry): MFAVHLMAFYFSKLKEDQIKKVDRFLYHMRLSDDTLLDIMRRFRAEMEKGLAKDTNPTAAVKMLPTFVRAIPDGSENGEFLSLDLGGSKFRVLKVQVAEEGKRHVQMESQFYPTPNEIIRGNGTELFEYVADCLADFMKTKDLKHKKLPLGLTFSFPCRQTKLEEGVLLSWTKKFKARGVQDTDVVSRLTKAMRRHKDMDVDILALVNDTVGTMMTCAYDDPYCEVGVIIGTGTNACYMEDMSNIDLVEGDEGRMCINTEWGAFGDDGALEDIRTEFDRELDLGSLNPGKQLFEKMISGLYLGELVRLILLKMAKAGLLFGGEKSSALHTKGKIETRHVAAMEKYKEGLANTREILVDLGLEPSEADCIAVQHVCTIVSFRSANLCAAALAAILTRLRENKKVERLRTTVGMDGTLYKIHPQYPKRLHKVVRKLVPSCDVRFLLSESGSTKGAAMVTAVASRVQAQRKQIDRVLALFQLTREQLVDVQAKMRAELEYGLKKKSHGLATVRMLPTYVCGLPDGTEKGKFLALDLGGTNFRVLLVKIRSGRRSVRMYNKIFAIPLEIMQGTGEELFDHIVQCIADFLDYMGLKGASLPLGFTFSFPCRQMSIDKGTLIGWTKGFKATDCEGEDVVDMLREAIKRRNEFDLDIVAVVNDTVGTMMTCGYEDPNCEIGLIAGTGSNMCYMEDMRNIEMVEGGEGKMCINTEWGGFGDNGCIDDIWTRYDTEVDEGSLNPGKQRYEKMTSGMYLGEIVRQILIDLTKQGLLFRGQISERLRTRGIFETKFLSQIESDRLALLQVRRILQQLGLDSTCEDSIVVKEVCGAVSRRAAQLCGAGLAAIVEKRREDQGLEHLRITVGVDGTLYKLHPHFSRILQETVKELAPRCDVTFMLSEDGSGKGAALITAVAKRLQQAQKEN
- experimentalProtocol: inhibition of HKDC1 glucose phosphorylation – biochemical, W721R variant, dose response (AID 504729)
- Type: functional
The source made the active and inactive calls.
The categories you may choose from are y (active), n (inactive)

Check out these entries, answers already filled in.
entrySmiles	categoryLabel
O=C(CNC(=O)/C=C/c1ccco1)N=Nc1c(O)[nH]c2ccccc12	n
CCCc1nc2c(c(=O)c3ccccc3n2C)c(=O)n1-c1ccc(F)cc1	y
CCCc1nc2oc3c(OC)ncnc3c2c2c1COC(C)(C)C2	n
COC(=O)c1cc(C)nc2c1C(=O)C(=O)C=C2N1CCOCC1	y
Cc1cc2cc(CCNC(=O)c3ccc(S(=O)(=O)N4CCOCC4)cc3)c(O)nc2cc1C	y

Field: next compound
Tell me the assay call for Cc1cccc(-n2c3nc(=O)[nH]c(=O)c-3cc3cc([N+](=O)[O-])ccc32)c1 please.
y

----------
- testedTarget: Albumin (Bos taurus, UniProt P02769)
- Sequence (P02769 whole entry): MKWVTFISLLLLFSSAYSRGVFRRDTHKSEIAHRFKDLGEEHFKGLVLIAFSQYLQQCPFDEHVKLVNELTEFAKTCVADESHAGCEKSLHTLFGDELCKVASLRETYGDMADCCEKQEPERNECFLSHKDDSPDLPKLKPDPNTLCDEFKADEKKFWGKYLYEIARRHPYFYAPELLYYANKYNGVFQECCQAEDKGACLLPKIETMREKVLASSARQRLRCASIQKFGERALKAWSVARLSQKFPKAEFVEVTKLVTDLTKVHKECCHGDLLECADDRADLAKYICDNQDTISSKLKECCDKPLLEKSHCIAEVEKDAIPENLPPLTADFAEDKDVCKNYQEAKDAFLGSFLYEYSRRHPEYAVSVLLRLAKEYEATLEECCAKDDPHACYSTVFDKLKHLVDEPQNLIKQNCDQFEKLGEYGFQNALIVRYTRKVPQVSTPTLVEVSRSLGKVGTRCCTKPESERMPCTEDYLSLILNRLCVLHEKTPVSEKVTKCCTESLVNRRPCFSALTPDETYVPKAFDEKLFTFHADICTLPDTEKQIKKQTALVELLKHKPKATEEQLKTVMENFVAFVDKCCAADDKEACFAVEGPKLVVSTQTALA
- experimentalProtocol: Counterscreen for inhibitors of T-cell receptor (TCR)-CD3 interaction: Fluorescence-based biochemical high throughput dose response assay to identify inhibitors of T-cell receptor (TCR)-CD3 interaction using a TAMRA-labeled BSA probe.
- Format: functional
Active and inactive are the calls of the source.
Record form. Attribute: IC50. Fill in for each entry.

Use these answered entries as a reference point.
entrySmiles	result
Cc1cc(=O)oc2cc(OCC(=O)N/N=C/c3cc([N+](=O)[O-])ccc3O)ccc12	> 94.1 µM (inactive)
Cc1ccc(O)c(/C=N/NC(=O)COc2ccc3c(C)cc(=O)oc3c2)c1	> 94.1 µM (inactive)
O=Nc1nc(O)c(/C=C(\O)c2ccccc2)nc1NO	> 94.2 µM (inactive)
O=C1/C(=C/c2ccco2)SC(=S)N1c1cccnc1	> 94.1 µM (inactive)

Fill in the blank: the reported IC50 of COc1ccc(-c2cnnn2-c2ccc(NC(=O)c3ccc(S(=O)(=O)N4CCCCC4)cc3)cc2)cc1OC is ____.
> 94.1 µM (inactive)
